// reported self-cleavage kobs at 2500 uM GlcN6P per item
B1: glmS ribozyme (parent)
chain: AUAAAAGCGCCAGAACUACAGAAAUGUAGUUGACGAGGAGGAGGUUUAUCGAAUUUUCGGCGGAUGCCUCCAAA

Variants of: B1
Assay: self-cleavage kobs at 2500 uM GlcN6P; higher = faster cleavage; RNA array
Settings: with glucosamine-6-phosphate
Variants at the floor of the assay were thinned out.
readout label: self-cleavage kobs at 2500 uM GlcN6P

[[record]]
sequence_change = "A6C A39G"
observed = "5.42e-05 s⁻¹"

[[record]]
sequence_change = "A33C G40A A48C G51C G60C"
observed = "< 1e-05 s⁻¹"

[[record]]
sequence_change = "U31C G40A G59U"
observed = "< 1e-05 s⁻¹"

[[record]]
sequence_change = "A15G U30A C67A C70U"
observed = "9.99e-05 s⁻¹"

[[record]]
sequence_change = "U31C G66A C68A U69G"
observed = "4.91e-05 s⁻¹"

